tested on: Regulator of chromosome condensation (Homo sapiens) + GTP-binding nuclear protein Ran (Homo sapiens) + Importin subunit beta-1 (Homo sapiens) (UniProt P18754+P62826+Q14974)
experimental details: RanGTP/importin-beta interaction disruptors – biochemical, CFP-Ran/YFP-importin-beta FRET, RCC1, cell-free, primary screen (AID 434961);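 note: 0% = DMSO wells and 100% inhibition = RanGDP control wells on each plate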
stated conditions: stronger effect = higher value, concentration not given here
The whole screen tested about 7,700 compounds, of which about 15 (0.2%) were called active. About 6% were inconclusive and are not listed. Only a selection was taken, and actives are over-represented in it overall.
measure name: inhibition (%)
Please give a number only; it is taken to be in %.

> print(dat)
                                         smi  measure.name  result
 1  C[C@@H]1CN([C@@H](C)CO)C(=O)Cc2cc(NC(=O)Nc3ccc4c(c3)OCO4)ccc2O[C@@H]1CN(C)CC1CC1    inhibition    2.45
 2  C[C@@H]1CN([C@H](C)CO)C(=O)Cc2cc(NC(=O)Cc3ccccc3)ccc2O[C@@H]1CN(C)S(=O)(=O)c1cccs1    inhibition   -2.73
 3  C[C@H]1CCCCO[C@@H](CN(C)S(=O)(=O)c2ccccc2)[C@@H](C)CN([C@@H](C)CO)C(=O)c2cc(N(C)C)ccc2O1    inhibition    1.05
 4  C[C@@H]1CN([C@H](C)CO)C(=O)CCCn2cc(nn2)CO[C@@H]1CN(C)C(=O)Nc1ccc(N2CCCCC2)cc1    inhibition    10.6
 5  C[C@H](CO)N1C[C@H](C)[C@H](CN(C)Cc2ccc3c(c2)OCO3)Oc2ccc(NC(=O)CCC(F)(F)F)cc2CC1=O    inhibition   0.912
 6  COc1ccc(S(=O)(=O)Nc2ccc3c(c2)CC(=O)N([C@H](C)CO)C[C@H](C)[C@H](CN(C)S(=O)(=O)c2cn(C)cn2)O3)cc1    inhibition    5.44
 7  C[C@H]1CN([C@@H](C)CO)C(=O)CCCn2nncc2CO[C@H]1CN(C)C(=O)Nc1ccccc1F    inhibition   0.229
 8  C[C@H](CO)N1C[C@H](C)[C@H](CN(C)C(=O)c2ccncc2)OCCCC[C@H](C)Oc2ccc(NS(=O)(=O)c3ccccc3)cc2C1=O    inhibition   -1.72
 9  C[C@@H]1CN([C@@H](C)CO)C(=O)c2cc(NS(=O)(=O)c3cccs3)ccc2O[C@@H]1CN(C)C(=O)Nc1ccc(F)cc1    inhibition  -0.701
10  COc1ccc(S(=O)(=O)N(C)C[C@H]2Oc3ccc(NC(=O)Nc4ccc(C(F)(F)F)cc4)cc3CC(=O)N([C@@H](C)CO)C[C@@H]2C)cc1    inhibition    3.32

Query: inhibition; subject: `C[C@H]1CN([C@@H](C)CO)C(=O)Cc2cc(NC(=O)Cc3ccccc3)ccc2O[C@@H]1CN(C)S(=O)(=O)c1cccs1` -0.944

Query: inhibition; subject: `C[C@H](CO)N1C[C@H](C)[C@H](CN(C)S(=O)(=O)c2cn(C)cn2)OCCCC[C@H](C)Oc2ccc(NC(=O)CCCN(C)C)cc2C1=O` 1.98

Query: inhibition; subject: `CNC[C@@H]1Oc2ccc(NC(=O)Nc3ccc4c(c3)OCO4)cc2CC(=O)N([C@@H](C)CO)C[C@@H]1C` -0.999

Query: inhibition; subject: `C[C@@H]1CN([C@H](C)CO)C(=O)c2cc(NC(=O)c3ccncc3)ccc2O[C@@H]1CN(C)C` 0.131
